Target: Human recombinant renin (Homo sapiens, UniProt P00797)
Construct: purchased Proteos
Sequence (P00797 67-406): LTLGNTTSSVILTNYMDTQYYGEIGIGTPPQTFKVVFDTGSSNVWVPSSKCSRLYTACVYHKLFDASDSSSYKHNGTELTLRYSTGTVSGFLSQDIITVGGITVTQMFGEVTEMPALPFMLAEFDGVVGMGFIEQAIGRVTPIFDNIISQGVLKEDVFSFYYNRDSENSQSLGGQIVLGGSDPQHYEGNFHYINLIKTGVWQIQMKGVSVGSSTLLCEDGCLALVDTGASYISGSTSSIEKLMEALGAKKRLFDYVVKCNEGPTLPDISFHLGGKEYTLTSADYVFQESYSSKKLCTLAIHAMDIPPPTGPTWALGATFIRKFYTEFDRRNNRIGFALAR
Experiment: Inhibition of human recombinant renin (buffer)
Type: biochemical
Conditions: 50 mM MOPS pH 7.4, 37° C., 3 hours
Value Kind: pIC50
# pIC50 = -log10(concentration in molar units)

{"columns": ["Molecule", "pIC50"],
 "data": [
  ["COCCCc1cc(CN(C(=O)[C@@H]2CNCC[C@H]2c2cc(=O)n(C)c3cc(Cl)ccc23)C2CC2)cc(OCCOC)c1 (relative stereo)", 8.66]
]}

Could you now look at the following molecule, please?
Req: // pIC50 lookup, key: COCCCc1cc(CN(C(=O)[C@@H]2CNCC[C@H]2c2cc(=O)n(C)c3ccccc23)C2CC2)cc(OCCOC)c1 (relative stereo)
Resp: 7.89
